Tgt: EGFR^L858R (Homo sapiens, UniProt P00533, L858R)
Sequence (P00533 25-1210 L858R): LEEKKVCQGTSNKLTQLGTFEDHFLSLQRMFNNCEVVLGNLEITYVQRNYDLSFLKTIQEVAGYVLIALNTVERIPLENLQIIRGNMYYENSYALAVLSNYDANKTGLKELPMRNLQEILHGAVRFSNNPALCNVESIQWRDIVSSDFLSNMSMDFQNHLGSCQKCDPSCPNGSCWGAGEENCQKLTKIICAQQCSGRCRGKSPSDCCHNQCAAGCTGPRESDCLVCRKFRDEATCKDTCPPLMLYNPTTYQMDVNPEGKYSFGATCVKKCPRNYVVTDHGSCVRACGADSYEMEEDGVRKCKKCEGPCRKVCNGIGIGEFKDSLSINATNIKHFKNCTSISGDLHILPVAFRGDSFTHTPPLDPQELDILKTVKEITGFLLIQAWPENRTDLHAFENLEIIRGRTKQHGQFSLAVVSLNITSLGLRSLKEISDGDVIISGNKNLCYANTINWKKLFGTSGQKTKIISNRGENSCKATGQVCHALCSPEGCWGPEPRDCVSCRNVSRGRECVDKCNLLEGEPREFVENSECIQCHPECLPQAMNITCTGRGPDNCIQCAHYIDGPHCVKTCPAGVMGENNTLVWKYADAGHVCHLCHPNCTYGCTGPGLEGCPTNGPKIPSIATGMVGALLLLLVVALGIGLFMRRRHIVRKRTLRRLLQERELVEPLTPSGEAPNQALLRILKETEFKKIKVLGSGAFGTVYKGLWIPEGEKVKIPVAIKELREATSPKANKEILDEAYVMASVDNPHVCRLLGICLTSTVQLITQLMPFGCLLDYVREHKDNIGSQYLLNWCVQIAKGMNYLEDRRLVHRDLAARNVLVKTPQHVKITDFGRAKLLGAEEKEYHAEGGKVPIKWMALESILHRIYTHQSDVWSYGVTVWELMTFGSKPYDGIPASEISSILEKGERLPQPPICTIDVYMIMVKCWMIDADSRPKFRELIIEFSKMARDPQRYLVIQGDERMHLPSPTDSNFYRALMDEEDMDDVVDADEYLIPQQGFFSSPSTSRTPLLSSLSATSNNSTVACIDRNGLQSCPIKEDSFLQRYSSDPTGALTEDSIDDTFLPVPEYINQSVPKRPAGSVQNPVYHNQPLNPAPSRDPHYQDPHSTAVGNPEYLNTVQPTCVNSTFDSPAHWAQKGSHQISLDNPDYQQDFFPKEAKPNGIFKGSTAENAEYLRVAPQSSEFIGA
Assay Explanation: in vitro kinase assay (HTRF KinEASE-TK kit), L
Study Conditions: kinase inhibition
pIC50: −log10 of the molar value.
Measurement Name: pIC50

Completed entries (count: 5):
CC1CCOc2c(cnn2C)-c2nccc(n2)Nc2cc3c(cn2)c(N2CCC2)nn31 (centres unmarked)	7.00 to 8.00
C[C@H]1CCOc2c(cnn2C)-c2nccc(n2)Nc2cc3c(cn2)c(-c2ccc(CN4CCN(CCF)CC4)n2C)nn31	> 8.00
Cn1ncc2c1OCCC(C)(C)n1nc(N3CCC3)c3cnc(cc31)Nc1ccnc-2n1	6.00 to 7.00
C[C@H]1CCOc2c(cnn2C)-c2nccc(n2)Nc2cc3c(cn2)c(-c2cccc(CN(C)C)c2)nn31	> 8.00
CCN(CC)CCOc1ccc(C)c(-c2nn3c4cc(ncc24)Nc2ccnc(n2)-c2cnn(C)c2OCC[C@@H]3C)c1	6.00 to 7.00

INPUT: Please look up its pIC50: CC1CCCOc2c(cnn2C)-c2nccc(n2)Nc2cc3c(cn2)c(N2CCC2)nn31 (centres unmarked)
OUTPUT: > 8.00

INPUT: # get_value(readout='pIC50', item= `C[C@H]1CCOc2c(cnn2C)-c2nccc(n2)Nc2cc3c(cn2)c(-c2ccc(CN4CCNCC4)n2C)nn31` )
OUTPUT: > 8.00

INPUT: Need pIC50, item `C[C@H]1CCOc2c(cnn2C)-c2nccc(n2)Nc2cc3c(cn2)c(-c2ccc(CN(C)CCCF)n2C)nn31`
OUTPUT: > 8.00

====

Tgt: Ba/F3 EGFR-Del19/C797S (Homo sapiens, UniProt P00533, C797S, cells depend on it, form not given)
Sequence (P00533 with tags, fused parts or gaps DEL746-750/C797S, form open): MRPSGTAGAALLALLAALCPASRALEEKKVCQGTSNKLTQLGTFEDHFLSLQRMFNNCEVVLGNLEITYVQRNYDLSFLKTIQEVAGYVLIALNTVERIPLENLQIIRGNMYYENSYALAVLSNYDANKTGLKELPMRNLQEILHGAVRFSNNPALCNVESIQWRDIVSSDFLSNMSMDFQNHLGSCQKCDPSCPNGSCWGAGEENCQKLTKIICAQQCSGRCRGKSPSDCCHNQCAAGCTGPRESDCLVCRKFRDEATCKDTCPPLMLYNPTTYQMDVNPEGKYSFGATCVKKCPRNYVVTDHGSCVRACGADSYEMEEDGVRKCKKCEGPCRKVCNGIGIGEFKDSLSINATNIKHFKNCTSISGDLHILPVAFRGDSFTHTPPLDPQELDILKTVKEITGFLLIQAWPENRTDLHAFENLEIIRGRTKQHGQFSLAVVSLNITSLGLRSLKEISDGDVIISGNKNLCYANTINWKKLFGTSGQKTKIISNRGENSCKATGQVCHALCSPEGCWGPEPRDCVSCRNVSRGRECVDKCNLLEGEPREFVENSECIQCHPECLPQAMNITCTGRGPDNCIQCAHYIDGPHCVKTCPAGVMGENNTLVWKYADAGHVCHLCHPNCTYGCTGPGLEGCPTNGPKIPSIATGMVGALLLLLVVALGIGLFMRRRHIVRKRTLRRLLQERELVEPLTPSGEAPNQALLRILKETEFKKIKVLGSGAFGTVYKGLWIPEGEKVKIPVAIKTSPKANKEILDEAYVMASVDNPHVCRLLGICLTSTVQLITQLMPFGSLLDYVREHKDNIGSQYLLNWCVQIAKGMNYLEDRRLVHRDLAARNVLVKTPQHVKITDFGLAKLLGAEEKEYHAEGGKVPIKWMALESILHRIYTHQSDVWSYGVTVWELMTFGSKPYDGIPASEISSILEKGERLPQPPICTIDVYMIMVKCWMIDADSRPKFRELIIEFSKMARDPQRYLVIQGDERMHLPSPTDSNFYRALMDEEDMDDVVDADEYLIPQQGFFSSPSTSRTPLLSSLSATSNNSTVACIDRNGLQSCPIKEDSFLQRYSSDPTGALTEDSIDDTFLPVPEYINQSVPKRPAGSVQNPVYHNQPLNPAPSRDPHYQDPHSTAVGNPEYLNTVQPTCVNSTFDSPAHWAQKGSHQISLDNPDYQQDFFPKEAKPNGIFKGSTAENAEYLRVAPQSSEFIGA
Assay Explanation: Ba/F3 viability assay (CellTiter-Glo), DC
Type: cell-based
Study Conditions: anti-proliferation, read-out: BaF3 DC IC50
Measurement Name: GI50

INPUT: Which GI50 value belongs to `C[C@H]1CCOc2c(cnn2C)-c2nccc(n2)Nc2cc3c(cn2)c(N2CCC2)nn31` ?
OUTPUT: 10 to 100 nM

INPUT: Reported GI50, compound `C[C@H]1CCOc2c(cnn2C)-c2nccc(n2)Nc2cc3c(cn2)c(-c2ccc(CN4CCN(C5CC5)CC4)n2C)nn31` : ____
OUTPUT: < 10 nM

INPUT: Which GI50 value belongs to `Cn1ncc2c1OCCC(C)(C)n1nc(N3CCC3)c3cnc(cc31)Nc1ccnc-2n1` ?
OUTPUT: 100 to 1000 nM

INPUT: Requested field: GI50. Item: `C[C@H]1CCOc2c(cnn2C)-c2nccc(n2)Nc2cc3c(cn2)c(-c2ccc(CN(C)CCCF)n2C)nn31`
OUTPUT: < 10 nM

INPUT: // query GI50 value for entry `CCN(CC)CCOc1cc(-c2nn3c4cc(ncc24)Nc2ccnc(n2)-c2cnn(C)c2OCC[C@@H]3C)ccc1Cl`
OUTPUT: 10 to 100 nM

INPUT: Need GI50 of `C[C@H]1CCOc2c(cnn2C)-c2nccc(n2)Nc2cc3c(cn2)c(-c2cccc(N4CCC(N5CCOCC5)CC4)c2)nn31` , thanks.
OUTPUT: 10 to 100 nM

INPUT: If you can, please state the reported GI50 value of `C[C@H]1CCCOc2c(cnn2C)-c2nccc(n2)Nc2cc3c(cn2)c(N2CCC2)nn31` .
OUTPUT: 10 to 100 nM

INPUT: So what's the measured GI50 for this one? CC1CCOc2c(cnn2C)-c2nccc(n2)Nc2cc3c(cn2)c(N2CCC2)nn31 (centres unmarked)
OUTPUT: 10 to 100 nM
